# method-description: adipocyte viability effects, profiling panel, cell-based, 3T3-L1 adipocytes, calcein-AM fluorescence, 48 h, basal (AID 1163); further: test concentration not given here
# stated-conditions: 3T3-L1 adipocytes viability, higher = more signal
Please assign a class to every record based on measured z-score, with ranges label 0 (below 0.1), label 1 (0.1 to below 0.7), label 2 (0.7 or more)

compound	label-class
CN1CCC(CCCO)=CC1c1ccc(CN2CCCC2)cc1 (stereo not given)	label 1
C=CCNC(=O)[C@@H]1[C@H]2C(=O)O[C@H](c3ccccc3)[C@H](c3ccccc3)N2[C@H](c2ccc(O)cc2)[C@@]12C(=O)N(C(=O)OCCOC)c1ccccc12	label 2
C=C(CCCC)/C(=C/C[C@H](OC(C)=O)c1ccc(CO)o1)c1cnc2ccccc2c1	label 0

Which category fits this record: COc1cc2c(cc1O)C(C)N(Cc1cccc(OC(F)(F)F)c1)CC2 (stereo not given)
label 2

Which category fits this record: O=C(NCc1ccccc1)[C@]1(CCS(=O)(=O)c2ccccc2)N=C(c2ccc(OCCCO)cc2)O[C@@H]1c1ccccc1
label 0

Which category fits this record: COC(=O)C(CC#Cc1ccc2c(c1)[C@]1(C(=O)N2)[C@H](c2ccc(OCCO)cc2)N2[C@H](c3ccccc3)[C@H](c3ccccc3)OC(=O)[C@H]2[C@@H]1C(=O)NC[C@H](O)c1ccccc1)C(=O)OC
label 2

Which category fits this record: O=C1[C@]2(CO)C=C(Br)[C@@H](C[C@@H]2c2ccccc2)[C@@]12CO2
label 1

Which category fits this record: CCCCC=C[C@@H](NC(=O)c1ccc(C(=O)OC)cc1)c1ccccc1
label 0

Which category fits this record: COC(=O)c1ccc(C23CC2(C(NP(=O)(c2ccccc2)c2ccccc2)c2ccccc2)C3)cc1 (stereo not given)
label 1

Which category fits this record: COCC(=C=CC[C@@H](O)c1ccc(CO)o1)CCO
label 2

Which category fits this record: CN1C=C(C(=O)OCCS(C)(=O)=O)C(C(=O)OCCS(C)(=O)=O)=CC(CCCO)=CC1C1CC1 (stereo not given)
label 1

Which category fits this record: N[C@@H](Cc1ccccc1)Cn1cc(-c2ccccc2)nn1
label 0

Which category fits this record: COc1ccc(CCN2C(=O)[C@@]3(Cc4ccccc42)c2ccccc2C(=O)N(Cc2ccccc2Cl)[C@H]3c2ccc(CO)cc2)cc1
label 0

Which category fits this record: C=CCOC(=O)[C@H]1[C@@H]2C(=O)O[C@@H](c3ccccc3)[C@@H](c3ccccc3)N2[C@@H](c2ccc(OCCOC(=O)[C@@H]3C[C@@H]4C(=O)NCC(=O)N4[C@@H]3c3ccc(O)cc3)cc2)[C@]12C(=O)Nc1ccccc12
label 2

Which category fits this record: C#CCN(C(/C=C/c1ccccc1)CO)C(C(=O)O)c1ccccc1 (stereo not given)
label 2

====

Listed next: entries and their corresponding composite z-score.
# System: wheat germ agglutinin (Triticum aestivum), Alexa647-labelled
# method-description: wheat germ agglutinin binders on compound microarrays, profiling panel, artefact control for SMM control-protein annotation, biochemical, small-molecule microarray, 635/667 nm fluorescence (AID 1140);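 further: score merges 667 nm feature emission with signal to noise over triplicate slides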
# stated-conditions: WGA-A647 binding, 635 nm fluorescence, higher = more signal
Response field accepts a number only; no unit should be typed.

Completed entries (count: 3):
molecule	composite z-score
C=C[C@H](C)[C@@H](O)c1ccc(O)c2ccccc12	0.545
COc1cc2c(cc1OC)CN(C(=O)[C@@H]1[C@H]3C(=O)O[C@H](c4ccccc4)[C@H](c4ccccc4)N3[C@H](c3ccccc3OCCO)[C@@]13C(=O)Nc1ccc(C#CCNC(N)=O)cc13)CC2	0.856
CCOC(=O)C1=CCC(c2ccc(C#N)cc2)N(S(=O)(=O)c2ccc(C)cc2)C1 (stereo unspecified)	1.19

COc1ccc(C#Cc2ccc3c(c2)[C@]2(C(=O)N3)[C@H](c3ccc(O)cc3)N3[C@H](c4ccccc4)[C@H](c4ccccc4)OC(=O)[C@H]3[C@@H]2C(=O)NC[C@H](O)c2ccccc2)cc1 yielded composite z-score of 1.01

C=C(COC)C(=O)CC[C@@H](OC(=O)c1cccnc1)c1ccc(CO)o1 yielded composite z-score of -0.0265

CN(C)C(=O)[C@@]1(CCC(=O)OC(C)(C)C)N=C(c2ccc(OCCCO)cc2)O[C@H]1c1ccccc1 yielded composite z-score of 0.798
